Readings of inhibition for the listed molecules
- test_target: Mannose-6-phosphate isomerase (Homo sapiens)
- assay_name: inhibitors of human PMI, primary screen, biochemical, fluorescence intensity, coupled assay (AID 1209);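 note: plate controls were DMSO vehicle for no effect and wells lacking substrate for full effect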
- particulars: purified PMI enzyme, at 20 µM, hits give high values
Screen size: about 190,000 compounds; about 810 (0.43%) were called active. The sample holds actives, similar compounds and a random draw of the others, so the mix is not that of the screen.
Numbers only here, please. The scale is %.

# example entries with known answers
chem_smiles	quantitative_result
COc1ccc2c(c1)CC/C2=N\OC(=O)c1ccccc1C	-5
N#CCCN(C(=O)CSc1ccc2c(c1)OCCO2)c1ccccc1	3.1
O=C(N/C(=C\c1cccc([N+](=O)[O-])c1)C(=O)N1CCOCC1)c1ccc([N+](=O)[O-])cc1	12.3
COc1ccc(OC)c(N=C2C(=O)Nc3ccccc32)c1	16.4
COc1ccc2c(C)c(Cl)c(=O)oc2c1	3.5
CCOCC(=O)Nc1nc2ccc(OCC)cc2s1	-3

Could you now look at the following molecule, please?
INPUT: Look up and state reported inhibition for `CCOCC(=O)Nc1nc2ccc(C)cc2s1`
OUTPUT: 110

###

- test_target: Mannose-6-phosphate isomerase (Homo sapiens) (UniProt P34949)
- Sequence (P34949 whole entry, looked up): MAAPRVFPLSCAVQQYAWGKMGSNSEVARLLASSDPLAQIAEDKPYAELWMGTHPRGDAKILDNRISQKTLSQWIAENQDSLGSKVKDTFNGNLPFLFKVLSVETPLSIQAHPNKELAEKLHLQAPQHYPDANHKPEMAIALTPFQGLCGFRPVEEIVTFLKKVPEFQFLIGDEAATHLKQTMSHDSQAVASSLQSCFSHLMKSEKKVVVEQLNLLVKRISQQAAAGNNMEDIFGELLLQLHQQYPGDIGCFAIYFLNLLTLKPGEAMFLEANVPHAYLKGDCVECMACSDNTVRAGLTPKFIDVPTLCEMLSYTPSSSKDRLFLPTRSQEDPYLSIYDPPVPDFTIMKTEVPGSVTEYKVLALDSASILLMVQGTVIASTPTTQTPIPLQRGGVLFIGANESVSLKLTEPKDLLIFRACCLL
- assay_name: inhibitors of human PMI, primary screen, biochemical, fluorescence intensity, coupled assay (AID 1209)
- particulars: purified PMI enzyme, at 20 µM, hits give high values
Screen size: about 190,000 compounds; about 810 (0.43%) were called active. This excerpt belongs to a sample that is enriched for actives.
Please mark rule met if the recorded inhibition is equal to or greater than 10%, and rule not met if it falls below.

Below are worked cases with known answers.
chem_smiles	class_assignment
CC(=O)Oc1ccc2c(=O)c(-c3ccccc3)coc2c1	rule not met
COc1cccc(C(=O)/C=C/c2ccc(N3CCCCC3)c([N+](=O)[O-])c2)c1	rule met
O=C(NCc1ccccc1)NCC12CC3CC(CC(C3)C1)C2	rule not met
Cc1c(C(=O)N2CCN(c3ccc(C(F)(F)F)cn3)CC2)oc2ccccc12	rule met

Please look at the following compound next.
INPUT: Does the compound `O=C(CSc1ncnc2c1oc1ccccc12)OCc1ccccc1` have recorded inhibition that is 10% or more?
OUTPUT: rule met

###

- test_target: Mannose-6-phosphate isomerase (Homo sapiens)
- assay_name: inhibitors of human PMI, primary screen, biochemical, fluorescence intensity, coupled assay (AID 1209)
- particulars: purified PMI enzyme, at 20 µM
About 810 (0.43%) of roughly 190,000 compounds were called active. Cut-off read from the data, not from the text of the source: active = inhibition above about 50%; inactive = the rest. The sample holds actives, similar compounds and a random draw of the others, so the mix is not that of the screen.
Response enum: active, inactive

molecule	class_assignment
Cc1cc(C)nc(-n2nc(C)cc2NC(=O)c2cccc(S(=O)(=O)N3CCCCC3)c2)n1	inactive

INPUT: What is the recorded call for this molecule in the test? `C/C(O)=c1/ccc2cccc3nc(C)nc1c23`
OUTPUT: inactive

INPUT: Would you mind telling me which call this test gave CCC(c1nnnn1Cc1cccs1)N1CCN(C2CCCC2)CC1 (stereo unspecified) ?
OUTPUT: inactive

INPUT: Record lookup: outcome of this test for `CCOC(=O)c1nn(-c2ccc(F)cc2)c(=O)c2c(N)scc12` ?
OUTPUT: inactive

###

- test_target: Mannose-6-phosphate isomerase (Homo sapiens) (UniProt P34949)
- assay_name: inhibitors of human PMI, primary screen, biochemical, fluorescence intensity, coupled assay (AID 1209);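 note: plate controls were DMSO vehicle for no effect and wells lacking substrate for full effect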
- particulars: purified PMI enzyme, at 20 µM
Screen size: about 190,000 compounds; about 810 (0.43%) were called active. No stated cut-off is given here; in the data, active means inhibition above about 50%; inactive means the rest. The sample as a whole holds a higher share of actives than the screen did.
Answer with one of the outcomes 1 (active), -1 (inactive)

Example entries and their recorded answers appear below.
compound	test_target	class_assignment
Cc1ccc(NCc2ccccc2O)c(C)c1	Mannose-6-phosphate isomerase (Homo sapiens) (UniProt P34949)	-1
Cc1cc([N+](=O)[O-])c(C)cc1-c1ccc(/C=N/NC(=O)c2cccnc2)o1	Mannose-6-phosphate isomerase (Homo sapiens) (UniProt P34949)	-1
Cc1c(C(=O)N/N=C/c2ccc(-c3ccccc3[N+](=O)[O-])o2)sc(N)c1C#N	Mannose-6-phosphate isomerase (Homo sapiens) (UniProt P34949)	1
COCC(C)N1C(=O)Cc2c1nc(N)c1c(N)nc(N3CCN(c4ccccc4F)CC3)c(C#N)c21 (stereo not given)	Mannose-6-phosphate isomerase (Homo sapiens) (UniProt P34949)	1
Cc1cccc(-n2nnc(C(=O)NCc3ccco3)c2N)c1	Mannose-6-phosphate isomerase (Homo sapiens) (UniProt P34949)	-1
Cc1ccc(S(=O)(=O)NCC(=O)N2CCCC2)cc1	Mannose-6-phosphate isomerase (Homo sapiens) (UniProt P34949)	-1

INPUT: Which outcome was assigned to `O=C(N/N=C/c1ccc(-c2ccccc2[N+](=O)[O-])o1)c1cncc(Br)c1` in this test?
OUTPUT: -1

INPUT: Kindly provide the recorded test outcome for the following compound: `Cc1ccc(C(=O)N/N=C\c2ccccc2[N+](=O)[O-])cn1`
OUTPUT: -1

INPUT: Would you mind telling me which call this test gave `CCCCN1C(=O)Cc2c1nc(N)c1c(N)nc(N(CCC)CCC)c(C#N)c21` ?
OUTPUT: -1

INPUT: For Cc1ccc(/C=N\NC(=O)C2COc3cc4ccccc4cc3O2)o1 (stereo not given) , which call appears in the assay record?
OUTPUT: -1

###

- test_target: Mannose-6-phosphate isomerase (Homo sapiens) (UniProt P34949)
- assay_name: inhibitors of human PMI, primary screen, biochemical, fluorescence intensity, coupled assay (AID 1209);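 note: plate controls were DMSO vehicle for no effect and wells lacking substrate for full effect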
- particulars: purified PMI enzyme, at 20 µM
Screen size: about 190,000 compounds; about 810 (0.43%) were called active. Rule as the data show it: active = inhibition above about 50%; inactive = the rest. The list comes from a sample in which actives are over-represented; it also holds close analogues and randomly drawn compounds.
Outcomes you can answer with include only these: active, inactive

Here's what some known entries look like.
compound	test_target	class_assignment
CCCc1cc(=O)[nH]c(SCc2ccccc2)n1	Mannose-6-phosphate isomerase (Homo sapiens) (UniProt P34949)	inactive
Cc1ccc(C(CC(=O)c2ccco2)SCCO)cc1 (configuration not stated)	Mannose-6-phosphate isomerase (Homo sapiens) (UniProt P34949)	active
O=C(CC(SCCO)c1ccc2c(c1)OCO2)c1ccco1 (configuration not stated)	Mannose-6-phosphate isomerase (Homo sapiens) (UniProt P34949)	inactive

INPUT: Test call for this compound, please: `O=C(COc1ccccc1[N+](=O)[O-])N/N=C/c1ccc(O)c([N+](=O)[O-])c1`
OUTPUT: inactive

INPUT: Assay outcome for `O=C(COc1ccccc1-c1ccccc1)N/N=C/c1ccc2ccccc2c1` : what was it?
OUTPUT: inactive

INPUT: Hi team, can someone confirm the assay call for `COc1ccc2nc(/N=C\N(C)C)sc2c1` ?
OUTPUT: inactive

INPUT: Hello, I am checking results. What call was entered for `COc1ccc2nc(N=Nc3ccc(N(C)C)cc3)sc2c1` ?
OUTPUT: inactive

INPUT: For this compound, state the assay outcome: `Cn1cnnc1SCC(=O)Nc1ccccc1F`
OUTPUT: inactive

INPUT: For `CN=c1scc(-c2ccc(F)cc2)n1/N=C/c1ccc(O)c(O)c1` , which call appears in the assay record?
OUTPUT: active

INPUT: Entry `Cc1cc(C)c(S(=O)(=O)/N=C2/C=C(SCC(=O)O)C(=O)c3ccccc32)cc1C` : call = ?
OUTPUT: inactive

###

inhibition values, listed per item
- test_target: Mannose-6-phosphate isomerase (Homo sapiens)
- assay_name: inhibitors of human PMI, primary screen, biochemical, fluorescence intensity, coupled assay (AID 1209);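 note: plate controls were DMSO vehicle for no effect and wells lacking substrate for full effect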
- particulars: purified PMI enzyme, at 20 µM, hits give high values
The campaign covered roughly 190,000 compounds. About 810 (0.43%) were called active. This excerpt belongs to a sample that is enriched for actives.
# output: bare number, implied unit %

Worked set:
molecule	inhibition / %
COc1cccc(NC(=O)c2cccnc2)c1	8.6
CN(Cc1ccno1)Cc1cn(C)nc1-c1ccc(Oc2ccccc2)cc1	26.3
Cc1ccc(-c2nnc(CSc3nc4cc5c(cc4cc3C)OCO5)o2)cc1	15.5

INPUT: Param request: inhibition | system Mannose-6-phosphate isomerase (Homo sapiens) | item `O=C1CN(C(=O)CSc2nc(-c3ccccc3)cs2)c2ccccc2N1`
OUTPUT: -3.1

INPUT: Tell me inhibition of CC(C)C(NC(=O)c1ccco1)C(=O)NCC(c1ccco1)N(C)C (stereo unspecified) when tested on Mannose-6-phosphate isomerase (Homo sapiens).
OUTPUT: -3.6

INPUT: Give the observed inhibition of `CCOc1ccc(-c2nn[nH]n2)cc1OCC` for Mannose-6-phosphate isomerase (Homo sapiens).
OUTPUT: -5.5

INPUT: GET inhibition where system = Mannose-6-phosphate isomerase (Homo sapiens) and item = `Cc1ccc(-c2nn(CC(=O)NCc3ccccn3)c(=O)c3ccccc23)cc1S(=O)(=O)N(C)C`
OUTPUT: -28.3

INPUT: Find the measured inhibition of `COc1cccc(-n2c(SCC(N)=O)nc3ccccc3c2=O)c1` with Mannose-6-phosphate isomerase (Homo sapiens) as test system.
OUTPUT: 2.2

INPUT: Report value only: inhibition, Mannose-6-phosphate isomerase (Homo sapiens), `COc1ccccc1-n1c(SCc2cc(=O)oc3cc(O)ccc23)nc2ccccc2c1=O`
OUTPUT: 8.3

INPUT: Lab note: Mannose-6-phosphate isomerase (Homo sapiens) assay, enter inhibition for `Cc1cccc(N2CCc3c2nc2ccc(Br)cc2c3N)c1` here
OUTPUT: 69.9

INPUT: Report value only: inhibition, Mannose-6-phosphate isomerase (Homo sapiens), `COc1ccc(CC(=O)OCC(=O)Nc2cccnc2Cl)cc1OC`
OUTPUT: -1.9
